target: IMP-1 (Serratia marcescens, UniProt P52699)
Sequence (P52699 19-246, looked up, species assumed): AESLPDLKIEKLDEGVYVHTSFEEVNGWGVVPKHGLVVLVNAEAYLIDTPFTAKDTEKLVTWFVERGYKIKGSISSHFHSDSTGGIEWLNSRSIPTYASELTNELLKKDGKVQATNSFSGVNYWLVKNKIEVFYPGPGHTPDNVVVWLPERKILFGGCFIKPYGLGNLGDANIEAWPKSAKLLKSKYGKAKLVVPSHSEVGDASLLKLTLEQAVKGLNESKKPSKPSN
pIC50: −log10 of the molar value.
attribute measured: pIC50

Any idea what pIC50 was measured for c1ccc(CNCc2ccccn2)nc1 ?
< 4.40
